FYI, the data here is from patent US20070286858A1.

molecular target: T1, human RAGE-Fc fusion protein (human, UniProt Q15109 23-344); experiment: competition ELISA on coated hRAGE-Fc; competitor 12.5 ng/ml biotinylated rat XT-M4
T1 construct: also called hRAGE-Fc; huRAGE-Fc; not shown: Fc domain of human IgG
recordedMetric: IC50 (µg/mL)
Write it as a number; the unit µg/mL goes unstated.

IC50 lookup needed for humanized XT-M4 hVH-V2.0 / hVL-V2.13 (antibody, human IgG1, V domains shown) VH: EVQLVESGGGLVQPGGSLRLSCAASGFTFNNYWMTWVRQAPGKGLEWVASIDNSGDNTYYPDSVKDRFTISRDNAKNSLYLQMNSLRAEDTAVYYCARGGDITTGFDYWGQGTLVTVSS VL: DIQMTQSPSSLSASVGDRVTITCRASQDVGIYVNWYQQKPGKAPKRLIYRATNLADGVPSRFSGSRSGTDFTLTISSLQPEDFATYYCLEFDEHPLTFGGGTKVEIK , thanks.
1.5

Quick check: IC50 of humanized XT-M4 hVH-V2.0 / hVL-V2.7 (antibody, human IgG1, V domains shown) VH: EVQLVESGGGLVQPGGSLRLSCAASGFTFNNYWMTWVRQAPGKGLEWVASIDNSGDNTYYPDSVKDRFTISRDNAKNSLYLQMNSLRAEDTAVYYCARGGDITTGFDYWGQGTLVTVSS VL: DIQMTQSPSSLSASVGDRVTITCRASQDVGIYVNWYQQKPGKAPKRLIYRATNLADGVPSRFSGSGSGTDFTLTISSLQPEDFATYYCLEFDEHPLTFGGGTKVEIK ?
8.5

# input binder: humanized XT-M4 hVH-V2.0 / hVL-V2.12 (antibody, human IgG1, V domains shown) VH: EVQLVESGGGLVQPGGSLRLSCAASGFTFNNYWMTWVRQAPGKGLEWVASIDNSGDNTYYPDSVKDRFTISRDNAKNSLYLQMNSLRAEDTAVYYCARGGDITTGFDYWGQGTLVTVSS VL: DIQMTQSPSSLSASVGDRVTITCRASQDVGIYVNWYQQKPGKAPRRLIYRATNLADGVPSRFSGSRSGTDFTLTISSLQPEDFATYYCLEFDEHPLTFGGGTKVEIK ; wanted: its IC50
2.7
